Data provenance: patent US20250248393A1

Test Method Notes: Ratios of molecules diffused through the sticks over time
Assay type: physicochemical
Condition Set: DAP, 21 days after immersion of sticks (empty tank)
# ratio of molecules diffused through the sticks values compiled below
Measure: ratio of molecules diffused through the sticks

[[record]]
compound = "CCCCCCCCCCCCCCCC(=O)OC [methyl palmitate, methyl hexadecanoate]"
result = "12 % (w/w)"

[[record]]
compound = "CCCCCCCCCCCC(=O)OC [methyl laurate, methyl dodecanoate]"
result = "37 % (w/w)"

[[record]]
compound = "CCCCCCCCCCCCCCCCCC(=O)OC [methyl stearate, methyl octadecanoate]"
result = "1 % (w/w)"

[[record]]
compound = "CCCCCCCC/C=C\\CCCCCCCC(=O)OC [methyl oleate, methyl (Z)-octadec-9-enoate]"
result = "3.5 % (w/w)"

[[record]]
compound = "CCCCC/C=C\\C/C=C\\CCCCCCCC(=O)OC [methyl linoleate, methyl (9Z,12Z)-octadeca-9,12-dienoate]"
result = "4 % (w/w)"

[[record]]
compound = "CCCCCCCCCCCCCCC(=O)OC [methyl pentadecanoate]"
result = "9 % (w/w)"

[[record]]
compound = "CCCCCCCCCCCCCC(=O)OC [methyl myristate, methyl tetradecanoate]"
result = "33.5 % (w/w)"

